Attribute: log10 of Ki
Target: rat α4β2 nAChR subtype (Rattus norvegicus (Rat), UniProt P09483+P12390)
Sequence (P09483 31-630): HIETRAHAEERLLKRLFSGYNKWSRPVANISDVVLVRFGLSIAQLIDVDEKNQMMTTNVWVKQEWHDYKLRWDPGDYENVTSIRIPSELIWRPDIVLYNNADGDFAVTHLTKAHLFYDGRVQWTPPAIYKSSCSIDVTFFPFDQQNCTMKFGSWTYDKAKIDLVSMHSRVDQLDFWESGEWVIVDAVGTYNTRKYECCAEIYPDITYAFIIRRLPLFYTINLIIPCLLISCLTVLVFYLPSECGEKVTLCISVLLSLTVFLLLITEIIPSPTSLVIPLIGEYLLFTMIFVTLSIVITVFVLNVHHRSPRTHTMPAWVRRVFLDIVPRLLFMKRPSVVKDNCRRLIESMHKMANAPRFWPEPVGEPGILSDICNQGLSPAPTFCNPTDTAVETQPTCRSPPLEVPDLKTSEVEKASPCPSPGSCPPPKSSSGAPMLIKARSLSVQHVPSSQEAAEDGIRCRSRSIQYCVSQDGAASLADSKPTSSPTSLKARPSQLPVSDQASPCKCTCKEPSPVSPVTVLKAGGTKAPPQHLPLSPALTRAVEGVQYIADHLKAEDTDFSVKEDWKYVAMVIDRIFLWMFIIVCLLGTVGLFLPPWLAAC
Sequence (P12390 25-500): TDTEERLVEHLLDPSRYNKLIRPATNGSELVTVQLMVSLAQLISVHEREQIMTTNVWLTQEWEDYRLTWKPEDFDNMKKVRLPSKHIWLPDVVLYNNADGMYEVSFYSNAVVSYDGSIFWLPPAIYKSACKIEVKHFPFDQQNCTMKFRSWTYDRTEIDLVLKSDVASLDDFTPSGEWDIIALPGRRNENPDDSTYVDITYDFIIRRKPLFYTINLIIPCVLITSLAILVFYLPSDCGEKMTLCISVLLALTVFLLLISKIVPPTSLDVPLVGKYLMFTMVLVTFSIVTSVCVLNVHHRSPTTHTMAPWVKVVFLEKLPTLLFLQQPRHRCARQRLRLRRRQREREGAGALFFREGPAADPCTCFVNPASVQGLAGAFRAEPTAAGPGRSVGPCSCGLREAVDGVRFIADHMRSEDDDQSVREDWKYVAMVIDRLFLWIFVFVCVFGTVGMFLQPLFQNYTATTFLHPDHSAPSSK
Assay: Radioligand ([3H]nicotine) binding at α4β2 nAChR, rat cortex membranes
A value of 2 here means Ki of 100 in nM, since values are log10.

Use these answered entries as a reference point.
O=C(c1ccoc1)N1CC2CNCC2C1 (stereo not drawn) = 1.72
O=C(c1occc1Cl)N1CC2CNCC(C2)C1 = 1.98
Cc1oc(C(=O)N2CC3CNCC3C2)cc1Br (stereo not drawn) = 1.30
O=C(c1occc1Br)N1CC2CNCC2C1 (stereo not drawn) = 0.18
O=C(c1ccc(Br)o1)N1CC2CNCC(C2)C1 = 1.61

[ask] What value of log10 of Ki has been reported for the following compound? Cc1oc(C(=O)N2CC3CNCC(C3)C2)cc1Br
[reply] 0.88
